Hello, the source for this data is patent US20260092093A1, in case you need it.

Target: T1, hIL-18 receptor (hIL-18Rα and hIL-18Rβ) (human, UniProt Q13478 19-541; O95256 20-599)
T1 sequence (looked up) 1: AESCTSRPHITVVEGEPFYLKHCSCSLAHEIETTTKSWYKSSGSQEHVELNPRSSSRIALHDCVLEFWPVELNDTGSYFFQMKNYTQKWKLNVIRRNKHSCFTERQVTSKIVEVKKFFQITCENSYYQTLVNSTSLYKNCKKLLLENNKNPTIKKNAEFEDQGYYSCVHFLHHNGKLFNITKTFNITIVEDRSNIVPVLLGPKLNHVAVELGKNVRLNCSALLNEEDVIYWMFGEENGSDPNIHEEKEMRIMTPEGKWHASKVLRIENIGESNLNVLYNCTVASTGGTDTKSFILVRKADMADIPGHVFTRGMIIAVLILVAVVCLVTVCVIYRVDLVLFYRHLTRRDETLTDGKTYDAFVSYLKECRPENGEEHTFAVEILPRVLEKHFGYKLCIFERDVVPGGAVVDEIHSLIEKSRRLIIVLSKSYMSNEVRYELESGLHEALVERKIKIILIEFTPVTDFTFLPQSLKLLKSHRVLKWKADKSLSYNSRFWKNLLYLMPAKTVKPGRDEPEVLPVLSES
T1 sequence (looked up) 2: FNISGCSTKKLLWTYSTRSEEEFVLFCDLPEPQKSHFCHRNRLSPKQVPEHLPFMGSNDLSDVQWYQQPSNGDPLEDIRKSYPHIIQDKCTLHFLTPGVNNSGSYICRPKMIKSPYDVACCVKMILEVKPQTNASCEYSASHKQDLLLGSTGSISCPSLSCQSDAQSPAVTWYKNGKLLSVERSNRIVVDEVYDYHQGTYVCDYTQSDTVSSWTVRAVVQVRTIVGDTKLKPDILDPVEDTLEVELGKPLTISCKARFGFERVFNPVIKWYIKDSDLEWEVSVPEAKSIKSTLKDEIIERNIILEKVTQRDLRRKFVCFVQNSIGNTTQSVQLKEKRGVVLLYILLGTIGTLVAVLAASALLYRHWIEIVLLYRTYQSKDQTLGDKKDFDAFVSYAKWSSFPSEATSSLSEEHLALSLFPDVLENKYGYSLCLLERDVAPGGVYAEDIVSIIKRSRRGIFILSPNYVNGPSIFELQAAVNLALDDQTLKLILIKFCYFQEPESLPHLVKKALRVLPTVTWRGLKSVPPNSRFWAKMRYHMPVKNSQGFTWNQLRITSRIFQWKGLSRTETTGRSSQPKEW
Test: cell-based or functional assay
property: EC50 (nM), hIL-18 reporter assay

>  <binder>
IL-18 variant polypeptide M12 (ligand) YFPKLKSKLSVIRNLNDQVLFIDQGNRPLFEDMTDSDCRDNAPRTIFIISMYKGSGARGMAVTISVKCEKISTLSCENKIISFKEMNPPDTIKDTKSDIIFFQRSVPGHDNKMQFESSSYEGYFLACEKERDLFKLILKKEDELGDRSIMFTVQNED

>  <result>
0.04 nM

$$$$
>  <binder>
IL-18 variant polypeptide M14 (ligand) YFNKLKSKLSVIRNLNDQVLFIDQGNRPLFEDMTDSDCRDNAPRTIFIISMYKPSSSRGMAVTISVKCEKISTLSCENKIISFKEMNPPDRIKDTKSDIIFFQASVPGHDNKMQFESSSYEGYFLACEKERDLFKLILKKEDELGDRSIMFTVQNED

>  <result>
0.04 nM

$$$$
>  <binder>
IL-18 variant polypeptide LM4 (ligand) YFPKLKSKLSVIRNLNDQVLFIDQGNRPLFEDMTDSDCRDNAPRTIFIISMYKHSYSRGMAVTISVKCEKISTLSCENKIISFKEMNPPDNIKDTKSDIIFFQRSVPGHDNKMQFESSSYEGYFLACEKERDLFKLILKKEDELGDRSIMFTVQNED

>  <result>
0.16 nM

$$$$
>  <binder>
IL-18 variant polypeptide MM1 (ligand) YFPKLKSKLSVIRNLNDQVLFIDQGNRPLFEDMTDSDCRDNAPRTIFIISMYKLSTQRGMAVTISVKCEKISTLSCENKIISFKEMNPPDVIKDTKSDIIFFQRSVPGHDNKMQFESSSYEGYFLACEKERDLFKLILKKEDELGDRSIMFTVQNED

>  <result>
0.97 nM

$$$$
>  <binder>
IL-18 variant polypeptide M32 (ligand) YFPKLGSKLSVIRNLNDQVLFIDQGNRPLFEDMTDSDCRDNAPRTIFIISMYKSSSRRGMAVTISVKCEKISTLSCENKIISFKEMNPPDNIKDTKSDIIFFQRSVPGHDNKMQFESSSYEGYFLACEKERDLFKLILKKEDELGDRSIMFTVQNED

>  <result>
5.9 nM

$$$$
>  <binder>
IL-18 variant polypeptide M26 (ligand) YFPKLRSKLSVIRNLNDQVLFIDQGNRPLFEDMTDSDCRDNAPRTIFIISMYKHSDKRGMAVTISVKCEKISTLSCENKIISFKEMNPPDVIKDTKSDIIFFQYSVPGHDNKMQFESSSYEGYFLACEKERDLFKLILKKEDELGDRSIMFTVQNED

>  <result>
0.068 nM

$$$$
>  <binder>
IL-18 variant polypeptide M23 (ligand) YFPKLRSKLSVIRNLNDQVLFIDQGNRPLFEDMTDSDCRDNAPRTIFIISMYKYSTRRGMAVTISVKCEKISTLSCENKIISFKEMNPPDNIKDTKSDIIFFQRSVPGHDNKMQFESSSYEGYFLACEKERDLFKLILKKEDELGDRSIMFTVQNED

>  <result>
0.8 nM

$$$$
